# Tested on: gene editing with Cas9
# method-description: Screen of 322 new SSAP proteins, gene editing activity with Cas9 (Table 5)
# Format: cell-based
# protocol-conditions: normalized
Listed here: items and their measured Cas9 with SSAP activity (normalized).

>  <molecule>
SSAP_271: SEQ ID NO: 440; Nocardia ninae (protein, listed as Nocardia ninae) AESISKEVARQANPLAVVAKYQNELGKSMPAAIRGDVGRWMMVAEMAVRKNPKLLSIVQADQGASLMRALIECARLGHEPGTKYFYLVPRGNQISGEEGYHGIIKRVLNSGHYQKVLARTVFERDEYSFDPLTDQLPTHVPASGERGKPVSAYAFALHWDGTPSTVAEASPERIAAAKAKSYGTDRKDSPWQSVTGVMYRKTAIRELEPYVHTSAEPQPRQDNAGSRGAVMDPSTYDDAEPLDADVLDITADQIAEHDGEGAL

>  <Cas9 with SSAP activity (normalized)>
0.623

$$$$

// moving on: another record for Cas9 with SSAP activity (normalized)
[ask] Entry under review: SSAP_59: SEQ ID NO: 228 (protein) SEIQQQAEAQTQAHPTAVLDDYRGAIASVAPPGTNIDLFIRMTKSNVNRSDEIVAAVKRNPGLFMQAVMDSAALGHIPGSEYYYLTPRRDGISGIESWKGVAKRIFNTGRYQRIVCEVVYEGEQWEFQPGEDLKPKHVIDWDARQVGSKVRFTYAYAVDFEGNPSTVAVCTKLDLDKAQKQSRGKVWDQWYEQMAKKTAIKRLEDFVDTSAVDLRADGSSRRHSAEVAE . Reported Cas9 with SSAP activity (normalized)?
[reply] 0.538
